Reported tissue uptake at 72 h values for a set of molecules
# Test summary: Ex vivo biodistribution in PC-3 tumor-bearing mice
# Assay setup: mouse, adrenal glands, Uptake in adrenal glands, 72 h post-injection
Numbered stars: 1 amine (or outer) side, 2 acyl side, 3 side chain; on linkers, the order of the positions; unused ones are H or OH. Square brackets hold non-standard residues; d marks the D form. Peptide text beside a SMILES is read from it. * marks the point of attachment. DOTA = O=C(O)CN1CCN(CC(=O)O)CCN(CC(=O)*)CCN(CC(=O)O)CC1; NMeH = CN[C@@H](Cc1c[nH]cn1)C(=O)O; X1 = O=C(CN1CCC(N[*:1])CC1)[*:2]; Tle = CC(C)(C)[C@H](N)C(=O)O; Thz = O=C(O)[C@@H]1CSCN1
Provide only the numeric value, understood in %ID/g.

>  <Molecule>
CC(C)C[C@H](NC(=O)[C@H](Cc1cnc[nH]1)N(C)C(=O)CNC(=O)[C@@H](NC(=O)[C@H](C)NC(=O)[C@H](Cc1c[nH]c2ccccc12)NC(=O)[C@H](Cc1c[nH]cn1)NC(=O)[C@@H](Cc1ccccc1)NC(=O)CN1CCC(NC(=O)CN2CCN(CC(=O)O)CCN(CC(=O)O)CCN(CC(=O)O)CC2)CC1)C(C)(C)C)C(=O)N1CSC[C@H]1C(N)=O [[^177Lu]Lu-LW01142, metal not drawn] ({DOTA}-[X1][dF]HWA[Tle]G[NMeH]L[Thz]-NH2)

>  <Result unit>
%ID/g

>  <tissue uptake at 72 h>
0.2

$$$$

IN: Output measured tissue uptake at 72 h for this item: CC(C)C[C@@H](CN1CSC[C@H]1C(N)=O)NC(=O)[C@H](Cc1cnc[nH]1)NC(=O)CN(C)C(=O)[C@@H](NC(=O)[C@H](C)NC(=O)[C@H](Cc1c[nH]c2ccccc12)NC(=O)[C@H](CCC(N)=O)NC(=O)[C@@H](Cc1ccccc1)NC(=O)CN1CCC(NC(=O)CN2CCN(CC(=O)O)CCN(CC(=O)O)CCN(CC(=O)O)CC2)CC1)C(C)C [[^177Lu]Lu-TacsBOMB5, metal not drawn]
OUT: 0.18
